Some molecules, each annotated with its measured Staph. aureus (PD₅₀) po.
Test system: Staph. aureus
Assay: In vivo antibacterial activity in infected mice (protective dose)
Settings: Mouse; oral, one-half hour postinfection; deaths recorded for seven days
Give just the number in mg/kg; leave the unit off.

                                   molecule              metric_name  observed_measurement
0  Cc1cc(-c2cc3c(cc2F)c(=O)c(C(=O)O)cn3C2CC2)cc(C)n1  Staph. aureus (PD₅₀) po                  0.20
1  CCn1cc(C(=O)O)c(=O)c2ccc(-c3cc(C)nc(C)c3)cc21 [P, reference compound]  Staph. aureus (PD₅₀) po                   3.8
2  CCn1cc(C(=O)O)c(=O)c2cc(F)c(-c3cc(C)nc(C)c3)cc21 [R, reference compound]  Staph. aureus (PD₅₀) po                  1.38
3  Cc1cc(-c2c(F)cc3c(=O)c(C(=O)O)cn(C4CC4)c3c2F)cc(C)n1  Staph. aureus (PD₅₀) po                  0.09

Bench note: what Staph. aureus (PD₅₀) po did Cc1cc(-c2c(F)c(F)c3c(=O)c(C(=O)O)cn(C4CC4)c3c2F)cc(C)n1 show?
0.14
